target: T1, RSV F subtype B, furin-cleaved ectodomain stabilized in the prefusion conformation (DS-Cav1) (Respiratory syncytial virus subtype B); experiment: BLI, IgG on AHQ sensor, 100 nM antigen
T1 construct: extracellular domain; Trimeric soluble antigen; also called Prefusion subtype B
readout: Kd (nM)
Report as a plain number; the unit nM is understood.

Look over these answered cases.
binder: ADI-18974 (antibody, V domains shown, full-length IgG from yeast) VH: QVQLVQSGPEVKKPGASVRVSCEASGYPFSNYGITWVRQAPGQGLEWMGWISAYNGNRDYLQKFQGRLTMTIDTSTRTAHMELRRLTSDDTAVYWCARDTPATAAPLLDYWGQGTLVTVSS VL: DIVMTQSPLSLAVTLGQPASISCRSSQSLEFTDGNTYLNWFQQRPGQSPRRLIYKVSNRDSGVPDRFSGSGSGTGFTLKISRVEAEDVGVYYCMQGIFRPGTFGQGTKVEIK
Kd (nM): 0.29

binder: ADI-18951 (antibody, V domains shown, full-length IgG from yeast) VH: QVQLVQSGGGLVQPGGSLRLSCAASGFAFSDYTMSWVRQAPGKGLEWVSSVSGTGGTSYYADSVNGRFAISRENSKNTLFLQMDSLRAEDTATYYCAKDGLRDVSRVYYIDVWGKGTTVTVSS VL: QPVLTQPASVSGSPGQSITISCTGTSRDIGSHDSVSWYQQKPGKAPKLIIYAVRNRPSGLSNRFSGSKSGNTASLTISGLQTEDEGDYYCSSYRNGNALGVFGTGTKVTVL
Kd (nM): 5.35

binder: ADI-18956 (antibody, V domains shown, full-length IgG from yeast) VH: QVQLVQSGAELKKPGSSVKVSCKASADTFKSYAINWVRQAPGQGLEWMGEFIPIFGVSPSAQKFQGRVTITADRSTSTAYMELSSLKSDDSAIYYCATRLYTLGSPFDNWGQGTTVTVSS VL: QPVLTQPRSVSGSPGQSVTISCTGTSSDVGDYDYVSWYQHLPGEVPKLIVYNVIKRPSGVPDRFSGSKSGNTASLTISGLQAEDEADYYCCSYAGRYIYVFGSGTKLTVL
Kd (nM): 0.224

Consider now this further binder.
Task: Quick check: Kd of ADI-18923 (antibody, V domains shown, full-length IgG from yeast) VH: EVQLLESGGGLVKPGGSLRLSCAASGFTFSSYSMNWVRQAPGKGLEWVSSISSSSSYIYYADSVKGRFTISRDNAKNSLYLQMNSLRAEDTAVYYCARDWPNSSSSPNWFDPWGQGTLVTVSS VL: QSVLTQPPSVSGAPGQRVTISCTGSSSNIGAGYDVHWYQQLPGTAPKLLIYGNSNRPSGVPDRFSGSKSGTSASLAITGLQAEDEADYYCQSYDSSLSGFYVFGTGTKLTVL ?
Output: 1.79
